Source listed as patent US20090022663A1.

# TGT: T1, purified recombinant 161P2F10B extracellular domain (Tag5-161P2F10B ECD, amino acids 46-875) (human, UniProt O14638 46-875)
# T1 construct: also called full length ECD
# MEASUREMENT NOTES: SPR (BIAcore), MAb captured on chip, recombinant 161P2F10B injected, 1:1 fit;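 further: purified human MAbs immobilised by capture on a CM5 chip surface, about 150 RU of antibody per cycle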
ENDPOINT: Kd (nM)
Please state the figure in nM; there is no need to write the unit.

Observe how each entry below is paired with its result.
Ha16-1(1)23 (antibody, V domains shown) VH: VESGGGVVQPGRSLRLSCAASGFTFRSYGMHWVRQAPGKGLEWVAVIWSDGSNKYYADSVKGRFTISRDNSKNTLYLQMNSLRAEDTAVYYCAREGYYGSGSYYYYYGMDVWGQGTTVTVSS VL: QAGLTQPPSVSKGLRQTATLTCTGNSNNVGTQGAAWLQQHQGHPPKLLSYRNNNRPSGISERLSASTSGNTASLTITGLQPEDEADYYCSAWDSSLSAVVFGGGTKLTVLG : 24
Ha16-1(3,5)42 (antibody, V domains shown, Entries hold the leader (or part of it) and a portion of the constant region) VH: EVQLVQSGAEVKKPGESLKISCKGSGYRFTSYWIGWVRQMPGKGLEWMGIIYPGDSDTRYSPSFQGQVTISADKSISTAYLQWSSLKASDTAMYYCARKDYYYYSMDVWGQGTTVTVSS VL: QSALTQPASVSGSPGQSITISCTGTSSDVGRFNYVSWYQQRPGKAPKLMIYAVNIRPSGVSNRFSGSKSGNTASLTISGLQAEDEAGYYCSSYTSSSTLLVFGGGTKLTVLG : 4.3

If you can, please state the reported Kd value of H16-7.213 (antibody, V domains shown) VH: WGLSEVSCKASGYTFTGYYMHWVRQAPGQGLEWMGWINPNSGGTNYAQKFQGRVTMTRDTSISTAYMELSRLRSDDTAVYYCARELRYFGWLLSSLDYWGQGTLVTVSS VL: DIQMTQSPSSLSASVGDRVTITCRASQSISSYLNWFQQKPGKAPKLLIYAASSLQSGVPSRFSGSESGTDFTLTISSLQPEDFATYSCQQSYSFPLTFGGGTKVEIKR . 3.9

Please give the measured Kd for this binder: Ha16-1(1)11 (antibody, V domains shown, also called ATCC PTA-7450) VH: GPGLVKPSETLSLTCTVSGGSISSYYWSWIRQPPGKGLEWIGYIYYSGSTNYNPSLKSRVTISVDTSKNQFSLKLSSVTAADTAVYYCARAVSYYYYGMDVWGQGTTVTVSS VL: DIQMTQSPSSLSASVGDRVTITCRTIQNINSYLNWYQQRPGKAPKLLIYATSSLQSGVPSRFSGSGSGTDFTLTISSLQPEDFATYYCQQTYSTLFTFGPGTKVDIKR 21.7

Entry Ha16-1(3,5)27.1 (antibody, V domains shown, VH entry holds part of the leader; both hold a portion of the constant region) VH: LVESGAEVKKPGESLKISCKGSGYRFTSYWIGWVRQMPGKGLEWMGIIYPGDSDTRYSPSFQGQVTISADKSISTAYLQWSSLKASDTAMYYCARKDYYYYSMDVWGQGTTVTVSS VL: GQSALTQPASVSGSPGQSITISCTGTSSDVGGYNYVSWYQQHPGQAPKLLIYGVNIRPSGVSTRFSGSKSGNTASLTISGLQAEDEADYYCSSYTRSSILVVFAGGTKLTVLG : reported Kd = ? 4.8
